- Tested on: Vero E6 infected with SARS-CoV-2
- EXPERIMENT: inhibition of SARS-CoV-2 cytopathic effect; higher = more antiviral protection, active = above 15
- MEASUREMENT SETUP: 100 nM; 48 h
REPORTED METRIC: inhibition of SARS-CoV-2 cytopathic effect (%)
Field format: number, assumed %, no unit text.

Problem: Please indicate recorded inhibition of SARS-CoV-2 cytopathic effect of CCCOC(=O)c1ccccc1 [propyl-benzoate] measured with Vero E6 infected with SARS-CoV-2.
Solution: -0.99

Problem: Write inhibition of SARS-CoV-2 cytopathic effect of CNCc1ccc(C)c(NC(=O)c2ccc(Nc3nc(-c4ccccc4)c4ccccc4n3)cc2)c1 ; system used: Vero E6 infected with SARS-CoV-2
Solution: -1.92

Problem: // fetch inhibition of SARS-CoV-2 cytopathic effect for Cc1nnc2ccc(-c3cccc(C(F)(F)F)c3)nn12 ; system: Vero E6 infected with SARS-CoV-2
Solution: 2.78

Source listed as the supplement of paper PMC13380429.
